- Test system: TK-10 renal
- Experimental protocol: NCI tumour cell line growth inhibition, 48 h; in the data active = GI50 below about 0.43 µM; inactive = the rest
Mark one answer only. Choices: 1 for active, 0 for inactive

Molecule	Group
O=[N+]([O-])c1cc([N+](=O)[O-])c(N2CCCC2)cc1NN=C(c1ccc(O)cc1)c1ccc(O)cc1	0
O=C1c2[nH]cc(CN3CCN(CCO)CC3)c2C(=O)c2c1c(O)c1ccccc1c2O	1
N#Cc1c(-c2ccccc2)n([O-])c2ccccc2[n+]1=O	0
O=C(NC1CCCCC1)NS(=O)(=O)c1ccc(-n2nc3c(c2-c2cccs2)Cc2ccccc2-3)cc1	0
O=C(Nc1cccc(-n2cc(-c3ccncc3)c(-c3ccc(Cl)c(O)c3)n2)c1)Nc1cccc(C(F)(F)F)c1	0
CC(=O)OCC1OC(OC2CCCC[Si](c3ccccc3)(c3ccccc3)O2)C(OC(C)=O)C(OC(C)=O)C1OC(C)=O (stereo not drawn)	0

## Input # lookup: test call for C=C(C)[C@@H]1CC[C@]2(COC(C)=O)CC[C@]3(C)[C@H](CC[C@@H]4[C@@]5(C)CCCN(C(C)=O)C(C)(C)[C@@H]5CC[C@]43C)[C@@H]12
## Output 0

## Input # lookup: test call for CCCCSSC(=S)N(CC)CC
## Output 0

---

- Test system: SNB-19 CNS
- Experimental protocol: NCI tumour cell line growth inhibition, 48 h
Experimental endpoint: GI50

GI50 of O=C(C(Br)C(Br)c1ccccc1)C(Br)C(Br)c1ccccc1 (centres undefined) , assay on SNB-19 CNS, is 3.49 µM

---

- System: COLO 205 colon
- Experimental protocol: NCI tumour cell line growth inhibition, 48 h
Attribute: TGI

Solved cases below.
Compound	TGI
Brc1sc(Br)c2c1[C@H](Br)C[C@@H]2Br	> 100 µM
COC(=O)C12C3C4C1C1C2C3C41C(=O)O (stereo unspecified)	> 100 µM
CCN(CCCNC(=O)Cc1cc(=O)oc2cc(N(C)C)ccc12)CCNc1ccnc2cc(Cl)ccc12	20.8 µM
Cc1nc(C(N)=S)sc1C(=O)CC(=O)C(=O)Nc1c(C(C)C)cccc1C(C)C	> 100 µM
Cn1c2ccccc2c(=NNc2ccc(S(N)(=O)=O)cc2)c2ccccc21	> 50 µM

Briefly, TGI measured for CC[N+](C)(CC)CCNC(=O)C(O)(c1ccccc1)c1ccccc1 : > 100 µM

Briefly, TGI measured for Cc1cccc(NC(=S)Nc2ccc(Cl)cc2)n1 : > 100 µM

Briefly, TGI measured for COc1cccc(-n2ncc3c(N/N=C/c4ccc(F)cc4)ncnc32)c1 : > 25 µM

---

- Tested on: U251 CNS
- Experimental protocol: NCI tumour cell line growth inhibition, 48 h
Experimental endpoint: TGI

Solved cases below.
Compound	TGI
C[Si]1(C)C(c2ccccc2)=CC2C(c3ccccc3)(c3ccccc3)OC21c1ccccc1 (centres undefined)	> 100 µM
Cc1nc2c(=O)n(C)c(=O)n(C)c2o1	> 100 µM
N#Cc1ccsc1Nc1ccccc1[N+](=O)[O-]	> 100 µM

Briefly, TGI measured for Brc1sc(Br)c2c1[C@H](Br)C[C@@H]2Br : > 100 µM

Briefly, TGI measured for CCC(CC)COC(=O)[C@H](C)N[P@](=O)(OC[C@H]1O[C@@](C#N)(c2ccc3c(N)ncnn23)[C@H](O)[C@@H]1O)Oc1ccccc1 : > 100 µM
